Test: endothelial E-selectin expression blockers – imaging, HUVEC, immunofluorescence, MLSMR starter and 10KST1 sets, primary screen (AID 487);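 also: 100% = median nuclei count of all wells on the same plate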
Conditions: HUVEC TNFalpha-induced E-selectin immunofluorescence imaging, at 2 µM; measured here: cell number, toxicity
For each entry below, report its nuclei count value.
The reply should contain only the number, in %.

Task item: Entry CSC1=C(C#N)C(c2ccc(Cl)cc2)C2=C(CC(C)(C)CC2=O)N1 (stereo unspecified) has what nuclei count?
Reply: 108

Task item: Entry Cc1ccc(S(=O)(=O)Cn2nnnc2CN(Cc2ccco2)CC2CCCO2)cc1 (stereo unspecified) has what nuclei count?
Reply: 69.6

Task item: Entry c1cc(CNc2ccc3c(c2)OCO3)ccn1 has what nuclei count?
Reply: 112

Task item: Entry Cc1ccccc1-c1nc(CS(=O)(=O)CC(=O)NCc2ccc3c(c2)OCO3)c(C)o1 has what nuclei count?
Reply: 110

Task item: Entry CCOC(=O)c1ccc2ncc(C(=O)OCC)c(NCCN(C)C)c2c1 has what nuclei count?
Reply: 113

Task item: Entry O=C1CCCC2=C1C(c1cccs1)n1nc(SCc3ccccc3F)nc1N2 (stereo unspecified) has what nuclei count?
Reply: 79.7
